Listed molecules paired with reported GI50
- Tested on: HCT-116
- assay_text: NCI tumour cell line growth inhibition, 48 h
The source made the active and inactive calls. No stated cut-off is given here; in the data, active = GI50 up to about 1.1 µM and inactive = higher.

q: Could you tell me which GI50 is on file for CC(/C=N/N=C(N)N)=N\N=C(N)N ?
a: 6.41 µM (inactive)

q: Item CC(=O)NC(CCCN)C(=O)NCc1ccccc1 (stereo not given) has what recorded GI50?
a: > 100 µM (inactive)

---

- Tested on: BT-549
- assay_text: NCI tumour cell line growth inhibition, 48 h
The source made the active and inactive calls. Cut-off read from the data, not from the text of the source: active = GI50 up to about 1.1 µM and inactive = higher.
# GI50 per entry

molecule	result
CCOC(=O)/C(C#N)=N\Nc1ccc(-n2c(C)nc3ccccc3c2=O)cc1	73.6 µM (inactive)
O=C(O)C1CCCN1C(=O)c1cc(Cl)ccn1 (stereo unspecified)	> 100 µM (inactive)

q: I would be grateful if you could share the reported GI50 for NCCSCCC(=O)O .
a: > 100 µM (inactive)

q: Requested read-out: GI50. Entry: O=C(O)C(Br)C(Br)c1ccccc1[N+](=O)[O-] (stereo unspecified)
a: > 100 µM (inactive)

q: Which GI50 is listed for O=C(O)c1ccc2c(c1)CC1(C2)Cc2cc3c(cc2C1=O)CCC3 (stereo unspecified) ?
a: > 100 µM (inactive)

q: Endpoint output: GI50 of C=C1CC[C@@H](C)[C@](C)(CCc2ccoc2)C/C=C\C=C/1C(=O)O . Value?
a: 19.5 µM (inactive)

---

Reported GI50 values follow for various compounds
- Test system: M14
- assay_text: NCI tumour cell line growth inhibition, 48 h
Activity calls are given as the source filed them. Cut-off read from the data, not from the text of the source: active = GI50 up to about 1.1 µM and inactive = higher.

compound	GI50
CN(C)C(=O)Oc1ccc(-c2cn3cc(NC(=O)c4ccccc4)ccc3n2)cc1	> 100 µM (inactive)
O=C(COc1ccc(Cl)cc1)N1N=C(c2ccc(Cl)cc2)CC1(O)c1ccccc1 (stereo unspecified)	18.1 µM (inactive)
CCOC(=O)C(NC(=O)OCc1ccccc1)C(=O)O (stereo unspecified)	> 100 µM (inactive)
C/C(CC(O)(C(F)(F)Cl)C(F)(F)Cl)=N\Nc1ccccc1	29.4 µM (inactive)
COc1ccc(OCc2nc3cc(C(F)(F)F)ccc3nc2-c2ccccc2)cc1	> 100 µM (inactive)
CCc1cc2c(cc1CCCC(=O)O)CC1(Cc3ccc(C(=O)O)cc3C1)C2 (stereo unspecified)	> 100 µM (inactive)
CS/C(c1ccccc1)=[N+](\[O-])Cc1ccccc1	> 100 µM (inactive)
CO/C(N)=C(C#N)/N=C/c1ccco1	> 100 µM (inactive)
C=CCn1cnc2c(O)nc(Nc3ccccc3)nc21	> 100 µM (inactive)
Cn1c2ccc3cc2c(=S)c2cc(ccc21)OCCOCCOCCOCCOCCOCCO3	> 10 µM (inactive)

Now consider the entry below.
q: Fill blank: measured GI50 of the compound Clc1ccc2c(c1)[nH]c1c2nc2sccn21 is ____.
a: > 100 µM (inactive)

---

- System: HOP-92
- assay_text: NCI tumour cell line growth inhibition, 48 h
The source made the active and inactive calls. Rule as the data show it: active = GI50 up to about 1.1 µM and inactive = higher.
property_measured: GI50

Example results:
molecule	result
COc1ccccc1/C=C/C1=NN(c2cccc(S(=O)(=O)O)c2)C2(C1)SCC(=O)N2c1nc2ccccc2s1 (stereo not given)	23.3 µM (inactive)
CC1C(c2ccccc2O)c2cc3c(cc2OC1N1CCCC1)OCO3 (stereo not given)	19.8 µM (inactive)

q: Please give the measured GI50 for this molecule: C1=N\CCOCC/N=C/c2ccccc2OCc2cccc(n2)COc2ccccc2/1
a: 10.4 µM (inactive)

q: Which measured GI50 value corresponds to Cc1ccc(S(=O)(=O)n2ccn3c(=O)cc(C)nc23)cc1 ?
a: > 10 µM (inactive)

q: Quick check: GI50 of C=C1CC2CC(=O)C(O)C(C1)C2 (stereo not given) ?
a: > 100 µM (inactive)
